The measurements presented in this section are drawn from patent US20240182482A1.

Reported IC50 values for a set of compounds
Tested on: MIA PaCa-2 cells
assay_info: In-vitro anti-proliferative activity on MIA PaCa-2 cells (intracellular ATP content)
Assay type: cell-based
condition_context: Homo sapiens, MIA PaCa-2, 72 h, compound alone, 72 h after dosing, read-out: IC50 Without GMC, anti-proliferative activity on MIA PaCa-2 cells
Give just the number in nM; leave the unit off.

Worked set:
{"compound": "[2H]C([2H])([2H])S(=O)(=Nc1cccc(-n2cc(F)c3cnc(Nc4cc5c6c(c4)CN(C)CC6CCC5)nc32)n1)C([2H])([2H])[2H] (stereo not drawn)", "IC50 (nM)": 85}
{"compound": "CCS(=O)(CC)=Nc1cccc(-n2cc(F)c3cnc(Nc4cc5c6c(c4)CN(C)CC6CCC5)nc32)n1 (stereo not drawn)", "IC50 (nM)": 106}

# input for lookup
Exercise: Form entry - test system: MIA PaCa-2 cells; read-out: IC50; compound: "[2H]C([2H])([2H])N1Cc2cc(Nc3ncc4c(F)cn(-c5ccc(F)c(N=S(C)(C)=O)n5)c4n3)cc3c2[C@H](CCC3)C1"
Solution: 76

* * *

// Wee-1 kinase (Homo sapiens (Human), UniProt P30291) IC50 records
Give just the number in nM; leave the unit off.

Worked set:
{"compound": "CN1Cc2cc(Nc3ncc4c(F)cn(-c5ccc(Cl)c(N=S(C)(C)=O)n5)c4n3)cc3c2C(CCC3)C1 (stereo not shown) [Compound 24]", "readout_label": "IC50", "recorded_number": 2.49}
{"compound": "CN1Cc2cc(Nc3ncc4c(F)cn(-c5cccc(N=S6(=O)CCC6)n5)c4n3)cc3c2C(CCC3)C1 (stereo not shown) [Compound 3]", "readout_label": "IC50", "recorded_number": 2.48}

Exercise: Form entry - test system: Wee-1 kinase (Homo sapiens (Human), UniProt P30291); read-out: IC50; compound: CN1Cc2cc(Nc3ncc4c(F)cn(-c5ccc(F)c(N=S(C)(C)=O)n5)c4n3)cc3c2C(CCC3)C1 (stereo not shown) [Compound 64]
Sequence (P30291 whole entry): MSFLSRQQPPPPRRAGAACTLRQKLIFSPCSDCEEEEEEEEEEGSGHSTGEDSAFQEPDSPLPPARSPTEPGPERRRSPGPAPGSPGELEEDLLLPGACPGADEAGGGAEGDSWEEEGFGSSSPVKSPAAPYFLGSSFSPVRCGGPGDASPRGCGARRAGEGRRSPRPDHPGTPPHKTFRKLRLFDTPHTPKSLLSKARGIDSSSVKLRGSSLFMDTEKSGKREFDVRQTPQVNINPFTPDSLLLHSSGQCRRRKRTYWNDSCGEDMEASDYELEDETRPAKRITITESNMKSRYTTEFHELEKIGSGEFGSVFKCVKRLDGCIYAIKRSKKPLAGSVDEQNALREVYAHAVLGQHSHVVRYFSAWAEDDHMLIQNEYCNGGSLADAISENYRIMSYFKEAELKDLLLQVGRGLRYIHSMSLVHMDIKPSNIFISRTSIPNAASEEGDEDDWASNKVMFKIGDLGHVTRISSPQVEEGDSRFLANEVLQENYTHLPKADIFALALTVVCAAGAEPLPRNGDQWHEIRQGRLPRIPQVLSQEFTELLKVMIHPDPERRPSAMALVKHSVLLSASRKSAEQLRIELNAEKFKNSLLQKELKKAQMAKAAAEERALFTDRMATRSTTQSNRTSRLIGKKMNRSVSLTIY
Solution: 3.36

Exercise: Form entry - test system: Wee-1 kinase (Homo sapiens (Human), UniProt P30291); read-out: IC50; compound: CN1Cc2cc(Nc3ncc4c(F)cn(-c5cccc(P(C)(C)=O)n5)c4n3)cc3c2C(CCC3)C1 (stereo not shown) [Compound 14]
Solution: 2.71
